IC50: recorded values
molecular target: Orai1/STIM1 (Homo sapiens); construct: expressed in transfected cells; host or cells: HEK-293; experiment: Fluorescence-based assay of store-operated calcium entry in Orai1/STIM1 stable cells; type: cell-based; details: Table iii; HEK-293 cells stably expressing human STIM1 and Orai1; 50% inhibition of Peak-Basal fluo-4 signal; read-out: Orai1/STIM1 (IC50, μmol)
Sequence (Q96D31 whole entry): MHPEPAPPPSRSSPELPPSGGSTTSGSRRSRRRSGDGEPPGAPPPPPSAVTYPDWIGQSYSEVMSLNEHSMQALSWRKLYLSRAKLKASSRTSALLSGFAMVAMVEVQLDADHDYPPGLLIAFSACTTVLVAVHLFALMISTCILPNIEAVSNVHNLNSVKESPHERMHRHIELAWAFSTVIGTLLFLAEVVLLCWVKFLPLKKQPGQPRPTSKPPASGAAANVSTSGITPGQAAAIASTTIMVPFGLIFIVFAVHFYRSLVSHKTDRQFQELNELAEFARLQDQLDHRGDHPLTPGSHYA

smiles_repr | IC50
Cn1nc(C(F)(F)F)cc1-c1ccc(NCc2c(F)cncc2F)c(F)c1 | 0.6 to 1.2 µM
Cn1nc(C(F)(F)F)cc1-c1ccc(NCc2c(F)cccc2F)cc1 | < 0.6 µM
Cc1nc(C(F)(F)F)cn1-c1ccc(NCc2c(F)cncc2F)cc1F | < 0.6 µM
Cc1nn(C(F)F)cc1-c1ccc(NCc2c(F)cccc2F)cc1 | < 0.6 µM
Cc1cc(C(F)(F)F)nn1-c1ccc(NCc2ccc(F)cc2F)cc1 | 0.6 to 1.2 µM
Cc1nn(C(F)F)cc1-c1ccc(NCc2c(F)cc(F)cc2F)cc1 | < 0.6 µM

Exam item: Supply recorded IC50 for Cn1nc(C(F)(F)F)cc1-c1ccc(NCc2ccncc2F)cc1F here.
Marked response: < 0.6 µM

Exam item: Supply recorded IC50 for Cc1ccccc1CNc1ccc(-c2cc(C(F)(F)F)nn2C)c(F)c1 here.
Marked response: < 0.6 µM

Exam item: Supply recorded IC50 for Fc1cncc(F)c1CNc1ccc(-n2nc(C(F)(F)F)cc2C(F)(F)F)cc1 here.
Marked response: 0.6 to 1.2 µM

Exam item: Supply recorded IC50 for Cc1cc2c(cc1-c1ccc(NCc3snnc3F)cc1)OC(F)(F)O2 here.
Marked response: 0.6 to 1.2 µM

Exam item: Supply recorded IC50 for Cc1cc(C(F)(F)F)nn1-c1ccc(NCc2c(F)ccc(F)c2F)cc1 here.
Marked response: < 0.6 µM

Exam item: Supply recorded IC50 for Cc1sc(C(F)(F)F)nc1-c1ccc(NCc2c(F)cc(F)cc2F)cc1 here.
Marked response: < 0.6 µM

Exam item: Supply recorded IC50 for Cn1nc(C(F)(F)F)cc1-c1ccc(NCc2c(F)cncc2F)cc1 here.
Marked response: < 0.6 µM

Exam item: Supply recorded IC50 for Cn1nc(C(F)(F)F)cc1-c1ccc(NCc2ccc(F)cc2F)cc1F here.
Marked response: < 0.6 µM
